- target: PCSK9Δhelix (Homo sapiens, UniProt Q8NBP7)
- Construct: Human PCSK9 construct M1-Q692 with an engineered TEV site (residue deletion Y166, R167); made in house; host or cells: CHO
- Sequence (Q8NBP7 with tags, fused parts or gaps limits assumed): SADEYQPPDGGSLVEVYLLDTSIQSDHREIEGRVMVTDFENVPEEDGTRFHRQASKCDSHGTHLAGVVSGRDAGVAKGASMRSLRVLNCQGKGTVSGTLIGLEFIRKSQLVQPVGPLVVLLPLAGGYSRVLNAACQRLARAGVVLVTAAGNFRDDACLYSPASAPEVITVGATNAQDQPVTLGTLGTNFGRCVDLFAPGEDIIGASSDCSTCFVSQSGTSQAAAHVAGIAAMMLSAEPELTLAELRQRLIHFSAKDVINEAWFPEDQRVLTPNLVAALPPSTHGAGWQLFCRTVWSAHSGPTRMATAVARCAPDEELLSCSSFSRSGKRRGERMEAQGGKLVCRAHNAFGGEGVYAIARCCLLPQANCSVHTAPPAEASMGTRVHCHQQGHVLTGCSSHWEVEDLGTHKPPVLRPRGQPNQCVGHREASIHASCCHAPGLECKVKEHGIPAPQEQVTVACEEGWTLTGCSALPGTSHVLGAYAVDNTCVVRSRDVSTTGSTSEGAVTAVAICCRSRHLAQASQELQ
- Sequence (Q8NBP7 31-152 partner limits assumed): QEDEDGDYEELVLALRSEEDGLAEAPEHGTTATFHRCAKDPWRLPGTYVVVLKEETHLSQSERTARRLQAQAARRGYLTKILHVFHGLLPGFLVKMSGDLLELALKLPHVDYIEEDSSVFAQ
- assay_details: PCSK9Δhelix/Ab20 TR-FRET binding assay
- condition_label: TR-FRET; Table 8E, additional compounds; read-out: PCSK9Δhelix/Ab20 IC50
pIC50: −log10 of the molar value. Square brackets hold non-standard residues; d marks the D form. Peptide text beside a SMILES is read from it. * marks the point of attachment. hArg = N=C(N)NCCCC[C@H](N)C(=O)O; X39 = O=C(C1CCC(c2ccccc2)CC1)*; X4 = Cc1ccc(OCCC(=O)*)cc1; Pentanoyl = CCCCC(=O)*
Is pIC50 at least 6? Then label 1. If not, label 0.

[
  {
    "molecule": "CCCCC(=O)N[C@@H](Cc1c[nH]c2ccccc12)C(=O)N[C@@H](CC(N)=O)C(=O)N[C@@H](CC(C)C)C(=O)N[C@H](C(=O)N[C@@H](CCCCNC(=N)N)C(=O)N[C@H](C(=O)NCC(=O)N[C@@H](CC(C)C)C(=O)N[C@H](C(=O)N[C@@H](CCCNC(=N)N)C(=O)O)[C@@H](C)O)[C@@H](C)CC)C(C)C [Compound 235, n-BuC(O)-WNLV(homoR)IGLTR] (Pentanoyl-WNLV[hArg]IGLTR-OH)",
    "group": "label 0"
  },
  {
    "molecule": "CC[C@H](C)[C@H](NC(=O)[C@H](CCCCNC(=N)N)NC(=O)[C@@H](NC(=O)[C@H](CC(C)C)NC(=O)[C@H](CC(N)=O)NC(=O)[C@H](Cc1c[nH]c2ccccc12)NC(=O)CCOc1ccc(C)cc1)C(C)C)C(=O)NCC(=O)N[C@@H](CC(C)C)C(=O)N[C@@H](CC(C)C)C(=O)N[C@@H](CCCNC(=N)N)C(N)=O [Compound 211] (X4-WNLV[hArg]IGLLR-NH2)",
    "group": "label 0"
  },
  {
    "molecule": "CC[C@H](C)[C@H](NC(=O)[C@H](CCCNC(=N)N)NC(=O)[C@@H](NC(=O)[C@H](CC(C)C)NC(=O)[C@H](CC(N)=O)NC(=O)[C@H](Cc1c[nH]c2ccccc12)NC(=O)C1CCC(c2ccccc2)CC1)C(C)C)C(=O)NCC(=O)N[C@@H](CC(C)C)C(=O)N[C@H](C(=O)N[C@@H](CCCNC(=N)N)C(N)=O)[C@@H](C)O (some centres unmarked) [Compound 185] (X39-WNLVRIGLTR-NH2)",
    "group": "label 1"
  }
]

----------
- target: PCSK9 (Homo sapiens, UniProt Q8NBP7)
- Sequence (Q8NBP7 153-692): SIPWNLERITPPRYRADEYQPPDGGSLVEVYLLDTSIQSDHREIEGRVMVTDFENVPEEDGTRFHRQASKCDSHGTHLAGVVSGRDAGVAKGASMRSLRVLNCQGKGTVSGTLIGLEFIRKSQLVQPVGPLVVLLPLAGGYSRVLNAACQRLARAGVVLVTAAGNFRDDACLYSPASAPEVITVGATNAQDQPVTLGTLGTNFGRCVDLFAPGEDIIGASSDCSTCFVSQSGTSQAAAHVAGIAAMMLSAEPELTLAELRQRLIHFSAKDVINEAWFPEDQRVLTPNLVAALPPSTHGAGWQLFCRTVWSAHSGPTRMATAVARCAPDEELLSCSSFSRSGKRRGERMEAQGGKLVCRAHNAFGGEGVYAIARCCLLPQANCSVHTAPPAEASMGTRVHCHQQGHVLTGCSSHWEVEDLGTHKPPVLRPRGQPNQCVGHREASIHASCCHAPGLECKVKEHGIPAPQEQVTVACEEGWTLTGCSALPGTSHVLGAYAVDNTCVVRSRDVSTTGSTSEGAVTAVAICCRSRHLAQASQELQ
- assay_details: Surface plasmon resonance biosensor-based affinity analysis (Example 4)
- Assay type: binding
- condition_label: Table 7, Target PCSK9, SPR at 20° C.

[
  {
    "substance": "Ac-PWNLVRIGLLR-NH2 [Compound 52]",
    "Kd, µM": 17.9
  }
]

----------
- target: PCSK9Δhelix (Homo sapiens, UniProt Q8NBP7)
- Construct: Human PCSK9 construct M1-Q692 with an engineered TEV site (residue deletion Y166, R167); made in house; host or cells: CHO
- assay_details: PCSK9Δhelix/Ab20 TR-FRET binding assay
- condition_label: TR-FRET; Table 8E, additional compounds; read-out: PCSK9Δhelix/Ab20 IC50
pIC50: −log10 of the molar value. Square brackets hold non-standard residues; d marks the D form. Peptide text beside a SMILES is read from it. * marks the point of attachment. Propanoyl(3-cHex) = O=C(CCC1CCCCC1)*; hArg = N=C(N)NCCCC[C@H](N)C(=O)O; X26 = O=C1CCCN1CCC(=O)*

[
  {
    "molecule": "CC[C@H](C)[C@H](NC(=O)[C@H](CCCNC(=N)N)NC(=O)[C@@H](NC(=O)[C@H](CC(C)C)NC(=O)[C@H](CC(N)=O)NC(=O)[C@H](Cc1c[nH]c2ccccc12)NC(=O)CCC1CCCCC1)C(C)C)C(=O)NCC(=O)N[C@@H](CC(C)C)C(=O)N[C@@H](CC(C)C)C(=O)N[C@@H](CCCNC(=N)N)C(N)=O [Compound 151] ({Propanoyl(3-cHex)}-WNLVRIGLLR-NH2)",
    "pIC50": 5.60
  },
  {
    "molecule": "CC[C@H](C)[C@H](NC(=O)[C@H](CCCCNC(=N)N)NC(=O)[C@@H](NC(=O)[C@H](CC(C)C)NC(=O)[C@H](CC(N)=O)NC(=O)[C@H](Cc1c[nH]c2ccccc12)NC(=O)CNC(=O)[C@@H]1CCCN1C(=O)[C@H](Cc1ccccc1)NC(=O)[C@H](CO)NC(=O)[C@H](CCC(=O)O)NC(=O)[C@H](CCSC)NC(C)=O)C(C)C)C(=O)NCC(=O)N[C@@H](CC(C)C)C(=O)N[C@@H](CC(C)C)C(=O)N[C@@H](CCCNC(=N)N)C(N)=O [Compound 229] (Ac-MESFPGWNLV[hArg]IGLLR-NH2)",
    "pIC50": 5.09
  },
  {
    "molecule": "CC[C@H](C)[C@H](NC(=O)[C@H](CCCNC(=N)N)NC(=O)[C@@H](NC(=O)[C@H](CC(C)C)NC(=O)[C@H](CC(N)=O)NC(=O)[C@H](Cc1c[nH]c2ccccc12)NC(=O)CCN1CCCC1=O)C(C)C)C(=O)NCC(=O)N[C@@H](CC(C)C)C(=O)N[C@@H](CC(C)C)C(=O)N[C@@H](CCCNC(=N)N)C(N)=O [Compound 128] (X26-WNLVRIGLLR-NH2)",
    "pIC50": 5.12
  }
]
